Test system: Sam68 (KHDRBS1)
Experiment description: compounds binding KHDRBS1 protein – biochemical, small-molecule microarray, 635 nm fluorescence, primary screen (AID 1125);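 also: score merges 667 nm channel intensity with signal to noise over triplicate slides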
Measurement conditions: higher = more signal
# cutoff 1 applies to composite z-score; >= gives Criterion met, < gives Criterion not met

Would you say C=CCC(OC(C)=O)[C@@H]1[C@@H](N(Cc2ccc(-c3ccccc3)cc2)C(=O)Cc2ccc(OC)cc2)c2cc(OCCCO)ccc2N1C(=O)c1ccc(-c2ccccc2)cc1 (stereo partly specified) shows composite z-score at minimum 1? Criterion not met

Would you say `COc1cccc(C)c1NC(=O)O[C@H]1[C@H](OC(=O)Nc2ccccc2)[C@H](OC(=O)Nc2ccccc2)[C@@H](OC)O[C@@H]1CO` shows composite z-score at minimum 1? Criterion met

Would you say `COc1ccc([Si](C)(C)[C@@H]2[C@@H](CC(=O)N(CCO)Cc3ccccc3)O[C@]3(C(=O)N(Cc4ccc(N5CCOC5=O)cc4)c4ccccc43)[C@H]2C)cc1` shows composite z-score at minimum 1? Criterion not met

Would you say `COCCOC(=O)N1C(=O)[C@@]2(c3cc(C#CCC(C(=O)OC)C(=O)OC)ccc31)[C@H](c1ccc(OCCO)cc1)N1[C@H](c3ccccc3)[C@H](c3ccccc3)OC(=O)[C@H]1[C@@H]2C(N)=O` shows composite z-score at minimum 1? Criterion met

Would you say `C[N+](C)(C)CCCCCCNC(=O)[C@@H]1C[C@@H]2C(=O)NCC(=O)N2[C@@H]1c1cccc(OCCO)c1` shows composite z-score at minimum 1? Criterion not met

Would you say O=C(C=C(CC(O)c1cccc(Cl)c1)OCCF)OCCF (stereo unspecified) shows composite z-score at minimum 1? Criterion not met

Data origin, for the record: PubChem BioAssay
